Assay: Particle size by laser diffraction (Mastersizer 2000, Scirocco 2000 dry dispersion)
Format: physicochemical
Conditions: processed CIPRO particles, Table 3; Hydrochloride Monohydrate
Let's look at some compounds and their measured Particle size d50.
Quick note: give the figure in μm, leave out the unit.

| compound | units | Particle size d50 |
| --- | --- | --- |
| Cl.O.O=C(O)c1cn(C2CC2)c2cc(N3CCNCC3)c(F)cc2c1=O [CIPRO (US & Krups Grinder), Ciprofloxacin Hydrochloride Monohydrate] | μm | 7.09 |

Query: What value of measured Particle size d50 is listed for Cl.O.O=C(O)c1cn(C2CC2)c2cc(N3CCNCC3)c(F)cc2c1=O [CIPRO (w/o US, Krups Grinder), Ciprofloxacin Hydrochloride Monohydrate] ?
Result: 3.88

Query: Continue with Cl.O.O=C(O)c1cn(C2CC2)c2cc(N3CCNCC3)c(F)cc2c1=O [CIPRO (US & Morter-Pastle), Ciprofloxacin Hydrochloride Monohydrate]
Result: 8.67

Query: Continue with Cl.O.O=C(O)c1cn(C2CC2)c2cc(N3CCNCC3)c(F)cc2c1=O [CIPRO (w/o US, Grinder designed at MIT), Ciprofloxacin Hydrochloride Monohydrate]
Result: 14.45
